# Tested on: PC3
# protocolText: CellTiter-Blue cell-based survival/proliferation assay, PC3
# details: Homo sapiens, PC-3; PC3 prostate tumor cell line, 48 h
# Description: Cell-Based Proliferation Screening of Compounds CellTiter-Blue cell-based survival/proliferation assay (Promega G8080) was performed on tumor cell lines. A total of 1·10^4 cells/well/50 μl were seeded in a 96-wells plate. Treatment was initiated by addition of a 2× drug solution of 1/10 serial dilutions ranging from 0 to 10 μM. […] The amount of resorufin dye formed was quantified by its fluorescence emission at 590 nm using a scanning multiwell spectrophotometer (OPTIMA, BMG labtech, France). […]
pIC50: −log10 of the molar value.
Please respond with reported pIC50 for every item in the list.

Request: # get_value(readout= pIC50, system= PC3) for CCOCc1ccc(C)c(Nc2nc(-c3ccc(N4CCNC4=O)cc3)ns2)c1
Result: ≥ 7.00

Request: Same for COc1ccc(C)c(Nc2ncc(-c3ccc(-n4cccn4)cc3)s2)c1
Result: < 6.00

Request: Same for CCOCc1ccc(C)c(Nc2ncc(-c3ccc(-n4ccnc4)cc3)o2)c1
Result: < 6.00

Request: Same for CCOCc1cccc(Nc2ncc(-c3ccc(-n4cccn4)cc3)o2)c1
Result: ≥ 7.00

Request: Same for COc1ccc(C)c(Nc2ncc(-c3ccc(-n4cccn4)cc3)o2)c1
Result: < 6.00

The reported measurements were obtained from patent US10570122B2.
